Biological target: Angiotensin-converting enzyme (Homo sapiens, UniProt P12821+Q9BYF1)
Experiment: Inhibition of Angiotensin I converting enzyme
Assay type: protein assay
Please assign a class to every record based on measured IC50, with ranges A = under 60 nM, B = from 60 nM up to 200 nM, C = 200 nM and over

# Compound, Test system, Classification
records = [
    ("O=C(O)[C@@H]1Cc2cccc3c2N1C(=O)C(NC(=O)C1(S)CCCC1)CC3 (stereo partly drawn)", "Angiotensin-converting enzyme (Homo sapiens, UniProt P12821+Q9BYF1)", "C"),
]

Bin this entry: O=C(N[C@@H]1CCc2cccc3c2N(C1=O)[C@H](C(=O)O)C3)[C@@H](S)Cc1ccccc1
B

Band for CC(C)(S)C(=O)NC1CCc2cccc3c2N(C1=O)[C@H](C(=O)O)C3 (stereo partly drawn) ?
C

Categorize the following entry: O=C(N[C@H]1CCc2cccc3c2N(C1=O)[C@H](C(=O)O)C3)C(CS)Cc1ccc(-c2ccccc2)cc1 (stereo in doubt; 4m (S))
B

Just checking, what class would you give CC[C@@H](C)[C@H](S)C(=O)NC1CCc2cccc3c2N(C1=O)[C@H](C(=O)O)C3 (stereo partly drawn) here?
A

Lab note: sort O=C(NC1CCc2cccc3c2N(C1=O)[C@H](C(=O)O)C3)[C@H](S)Cc1ccccc1 (stereo partly drawn) into the matching IC50 band.
C

---

Record set of pIC50 for target or system Neprilysin (Homo sapiens, UniProt P08473).
Conceptually, pIC50 converts a concentration in mol/L into minus its log10.

Guide cases for pIC50, answers given:
# Molecule, Test system, pIC50
measured = [
    ("O=C(N[C@H]1CCc2cccc3c2N(C1=O)[C@H](C(=O)O)C3)C(CS)Cc1ccc(-c2ccccc2)cc1 (stereo in doubt; 4m (S))", "Neprilysin (Homo sapiens, UniProt P08473)", 7.82),
    ("O=C(O)[C@@H]1Cc2cccc3c2N1C(=O)C(NC(=O)C1(S)Cc2ccccc2C1)CC3 (some centres undefined)", "Neprilysin (Homo sapiens, UniProt P08473)", 6.30),
]

Turning now to a further record.
Recall and state the measured pIC50 for CC(C)[C@H](S)C(=O)NC1CCc2cccc3c2N(C1=O)[C@H](C(=O)O)C3 (some centres undefined) .
6.03

---

Entries and their measured log10 of IC50 follow.
Biological target: Angiotensin-converting enzyme (Homo sapiens, UniProt P12821+Q9BYF1)
Assay: Inhibition of Angiotensin I converting enzyme
Format: protein assay
Quick note: numbers are log10 of IC50, with nM as the unit.

# Compound, Experimental result
measured = [
    ("O=C(N[C@H]1CCc2cccc3c2N(C1=O)[C@H](C(=O)O)C3)C(CS)Cc1ccc(-c2ccccc2)cc1 (stereo in doubt; 4n (S))", 3.05),
]

Please give measured log10 of IC50 of the following entry: O=C(N[C@H]1CCc2cccc3c2N(C1=O)[C@H](C(=O)O)C3)[C@@H](S)Cc1ccccc1
1.60

Identify the reported log10 of IC50 for the following entry. C[C@H](S)C(=O)NC1CCc2cccc3c2N(C1=O)[C@H](C(=O)O)C3 (some centres not stated)
2.22

Query log10 of IC50 for O=C(NC1CCc2cccc3c2N(C1=O)[C@H](C(=O)O)C3)[C@@H](S)Cc1ccc(-c2ccccc2)cc1 (some centres not stated)
1.95

Give the measured log10 of IC50 for CC(C)[C@H](S)C(=O)NC1CCc2cccc3c2N(C1=O)[C@H](C(=O)O)C3 (some centres not stated)
1.48
